Biological target: AEA-DA lipid probe targets in Neuro2a cells (Mus musculus, UniProt P81117)
Sequence (P81117 25-420): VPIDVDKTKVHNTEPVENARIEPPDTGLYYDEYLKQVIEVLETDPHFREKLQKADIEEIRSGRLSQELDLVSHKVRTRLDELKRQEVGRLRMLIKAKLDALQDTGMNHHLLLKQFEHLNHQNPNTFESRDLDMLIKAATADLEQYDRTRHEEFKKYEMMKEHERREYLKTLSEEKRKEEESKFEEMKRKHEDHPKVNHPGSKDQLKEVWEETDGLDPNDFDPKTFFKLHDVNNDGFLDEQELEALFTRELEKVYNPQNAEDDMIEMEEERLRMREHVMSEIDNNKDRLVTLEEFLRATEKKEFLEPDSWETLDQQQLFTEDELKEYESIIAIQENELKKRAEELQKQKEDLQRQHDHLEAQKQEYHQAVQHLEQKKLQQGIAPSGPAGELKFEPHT
Conditions: competitor 25 μM
PROPERTY_LABEL: SILAC ratio, Nucb2
Please reply with the value in numeric form only.

Use the examples below as a reference point.
C=CCN(C)CCCCCCOc1ccc(C(=O)c2ccc(Br)cc2)c(F)c1 [Ro 48-8071, reference compound] : 0.8
O=C(/C=C/c1cccnc1)NCCCCC1CCN(C(=O)c2ccccc2)CC1 [FK-866, reference compound] : 1.1
CN1CCN(C(=O)c2[nH]c3ccc([N+](=O)[O-])cc3c2-c2ccccc2)CC1 : 1.6

I am curious: what SILAC ratio, Nucb2 value has been reported for `CN1CCN(C(=O)c2c(-c3ccccc3)c3cc([N+](=O)[O-])ccc3n2C)CC1` ?
2.0

All values here come from patent US10168342B2.
